# targetOrTestSystem: HLA-A*69:01
# assayOverview: IEDB peptide-MHC binding, purified MHC/competitive/fluorescence; filed as Kd, often an IC50 or EC50 that approximates it; bounds were set here for any values at or beyond the usual limits of such assays
# assayConditions: source organism: Entamoeba dispar SAW760
parameterMeasured: Kd

For reference, reported Kd for KDGTLFYCY stands at ≥ 20 µM

---

# targetOrTestSystem: HLA-C*04:01
# assayOverview: IEDB peptide-MHC binding, purified MHC/direct/fluorescence; filed as Kd, often an IC50 or EC50 that approximates it; bounds were set here for any values at or beyond the usual limits of such assays
# assayConditions: source organism: Shigella flexneri 5 str. 8401
pKd: −log10 of the molar value.
parameterMeasured: pKd

For reference, reported pKd for VSITNPFLF stands at ≤ 4.70

---

# targetOrTestSystem: HLA-A*11:01
# assayOverview: IEDB peptide-MHC binding, purified MHC/direct/fluorescence; filed as Kd, often an IC50 or EC50 that approximates it; bounds were set here for any values at or beyond the usual limits of such assays
# assayConditions: source organism: Brucella abortus
parameterMeasured: Kd

The sequence AENGWGFYF , tested on HLA-A*11:01, showed Kd of ≥ 20 µM

---

# targetOrTestSystem: HLA-A*26:01
# assayOverview: IEDB peptide-MHC binding, purified MHC/direct/fluorescence; filed as Kd, often an IC50 or EC50 that approximates it; bounds were set here for any values at or beyond the usual limits of such assays
# assayConditions: source organism: Salmonella enterica subsp. enterica serovar Typhi
parameterMeasured: Kd

For reference, reported Kd for REILFHNTM stands at ≥ 20 µM

---

# targetOrTestSystem: HLA-A*02:17
# assayOverview: IEDB peptide-MHC binding, purified MHC/competitive/radioactivity; filed as Kd, often an IC50 or EC50 that approximates it; bounds were set here for any values at or beyond the usual limits of such assays
# assayConditions: source organism: Dengue virus 4 Dominica/814669/1981
parameterMeasured: pKd
// field semantics: pKd = negative decimal log of concentration (mol/L)

For reference, reported pKd for ALSEGVYRI stands at 6.76

---

# targetOrTestSystem: HLA-A*68:01
# assayOverview: IEDB peptide-MHC binding, purified MHC/competitive/radioactivity; filed as Kd, often an IC50 or EC50 that approximates it; bounds were set here for any values at or beyond the usual limits of such assays
# assayConditions: source organism: Mammarenavirus machupoense
parameterMeasured: Kd

For reference, reported Kd for TAVAKCNQNH stands at ≥ 70.1 µM

---

# targetOrTestSystem: HLA-B*48:01
# assayOverview: IEDB peptide-MHC binding, purified MHC/direct/fluorescence; filed as Kd, often an IC50 or EC50 that approximates it; bounds were set here for any values at or beyond the usual limits of such assays
# assayConditions: source organism: Brucella abortus 2308
parameterMeasured: pKd
// field semantics: pKd = negative decimal log of concentration (mol/L)

The sequence GQWGGDWAV , tested on HLA-B*48:01, showed pKd of 7.21

---

# targetOrTestSystem: HLA-B*51:01
# assayOverview: IEDB peptide-MHC binding, purified MHC/direct/fluorescence; filed as Kd, often an IC50 or EC50 that approximates it; bounds were set here for any values at or beyond the usual limits of such assays
# assayConditions: source organism: Bacillus anthracis str. 'Ames Ancestor'
pKd: −log10 of the molar value.
parameterMeasured: pKd

For reference, reported pKd for TKAGMAQYL stands at ≤ 4.70

---

# targetOrTestSystem: HLA-A*02:01
# assayOverview: IEDB peptide-MHC binding, purified MHC/direct/fluorescence; filed as Kd, often an IC50 or EC50 that approximates it; bounds were set here for any values at or beyond the usual limits of such assays
# assayConditions: source organism: Salmonella enterica
parameterMeasured: Kd

For reference, reported Kd for AIDPRRIVA stands at ≥ 20 µM

---

# targetOrTestSystem: HLA-A*02:03
# assayOverview: IEDB peptide-MHC binding, purified MHC/direct/fluorescence; filed as Kd, often an IC50 or EC50 that approximates it; bounds were set here for any values at or beyond the usual limits of such assays
# assayConditions: source organism: Burkholderia mallei ATCC 23344
pKd: −log10 of the molar value.
parameterMeasured: pKd

The sequence LVTGAGSGF , tested on HLA-A*02:03, showed pKd of ≤ 4.70

---

# targetOrTestSystem: HLA-B*46:01
# assayOverview: IEDB peptide-MHC binding, purified MHC/direct/fluorescence; filed as Kd, often an IC50 or EC50 that approximates it; bounds were set here for any values at or beyond the usual limits of such assays
# assayConditions: source organism: Influenza A virus (A/Switzerland/8808/2002(H1N1))
parameterMeasured: Kd

The sequence VPAQNAIST , tested on HLA-B*46:01, showed Kd of ≥ 20 µM

---

# targetOrTestSystem: HLA-B*15:01
# assayOverview: IEDB peptide-MHC binding, purified MHC/direct/fluorescence; filed as Kd, often an IC50 or EC50 that approximates it; bounds were set here for any values at or beyond the usual limits of such assays
# assayConditions: source organism: Bacillus licheniformis
parameterMeasured: Kd (nM)
Give just the numeric value; nM need not be written.

For reference, reported Kd for ALMEITSRY stands at 90.5

---

# targetOrTestSystem: HLA-B*40:02
# assayOverview: IEDB peptide-MHC binding, purified MHC/competitive/radioactivity; filed as Kd, often an IC50 or EC50 that approximates it; bounds were set here for any values at or beyond the usual limits of such assays
# assayConditions: source organism: Mammarenavirus machupoense
parameterMeasured: pKd
// field semantics: pKd = negative decimal log of concentration (mol/L)

These solved cases illustrate the format of a correct answer.
For reference, reported pKd for AEWLEMICF stands at 7.71

For reference, reported pKd for SDHLISEML stands at 6.66

For reference, reported pKd for KEINLLSQT stands at 7.51

For reference, reported pKd for PDFNSLISI stands at 6.09

In the following, a different sequence is considered.
For reference, reported pKd for NDNFLMRNV stands at 5.67

---

# targetOrTestSystem: HLA-B*44:02
# assayOverview: IEDB peptide-MHC binding, purified MHC/competitive/radioactivity; filed as Kd, often an IC50 or EC50 that approximates it; bounds were set here for any values at or beyond the usual limits of such assays
# assayConditions: source organism: Dengue virus 4 Philippines/H241/1956
parameterMeasured: Kd
Just so you know, I need the unit written after the number.

For reference, reported Kd for AGADTSEVHW stands at 4920 nM

For reference, reported Kd for EENMEVEIW stands at 23.4 nM

In the following, a different sequence is considered.
For reference, reported Kd for VEMGEAAAI stands at 12.9 nM

---

# targetOrTestSystem: HLA-A*03:01
# assayOverview: IEDB peptide-MHC binding, purified MHC/direct/fluorescence; filed as Kd, often an IC50 or EC50 that approximates it; bounds were set here for any values at or beyond the usual limits of such assays
# assayConditions: source organism: Giardia lamblia ATCC 50803
pKd: −log10 of the molar value.
parameterMeasured: pKd

For reference, reported pKd for IHKPRPPAT stands at ≤ 4.70

---

Kd: recorded values
# targetOrTestSystem: HLA-B*44:02
# assayOverview: IEDB peptide-MHC binding, purified MHC/direct/fluorescence; filed as Kd, often an IC50 or EC50 that approximates it; bounds were set here for any values at or beyond the usual limits of such assays
# assayConditions: source organism: Mycobacterium tuberculosis

These solved cases illustrate the format of a correct answer.
For reference, reported Kd for WMRGRGRAL stands at ≥ 20 µM

For reference, reported Kd for FHSRFVQAL stands at ≥ 20 µM

In the following, a different sequence is considered.
For reference, reported Kd for WEITYLGTT stands at ≥ 20 µM

---

# targetOrTestSystem: HLA-B*27:03
# assayOverview: IEDB peptide-MHC binding, purified MHC/direct/fluorescence; filed as Kd, often an IC50 or EC50 that approximates it; bounds were set here for any values at or beyond the usual limits of such assays
# assayConditions: source organism: Encephalitozoon cuniculi GB-M1
pKd: −log10 of the molar value.
parameterMeasured: pKd

For reference, reported pKd for RNMSRIFPY stands at ≤ 4.70

---

# targetOrTestSystem: HLA-B*44:03
# assayOverview: IEDB peptide-MHC binding, purified MHC/competitive/radioactivity; filed as Kd, often an IC50 or EC50 that approximates it; bounds were set here for any values at or beyond the usual limits of such assays
# assayConditions: source organism: Dengue virus 4 Philippines/H241/1956
Kd: recorded values
Give just the numeric value; nM need not be written.

For reference, reported Kd for VEMGEAAAI stands at 27.7

In the following, a different sequence is considered.
For reference, reported Kd for EENMEVEIW stands at 81.5

---

# targetOrTestSystem: HLA-B*27:05
# assayOverview: IEDB peptide-MHC binding, purified MHC/competitive/fluorescence; filed as Kd, often an IC50 or EC50 that approximates it; bounds were set here for any values at or beyond the usual limits of such assays
# assayConditions: source organism: Mycobacterium tuberculosis H37Ra
pKd: −log10 of the molar value.
parameterMeasured: pKd

For reference, reported pKd for AVYLLDGLR stands at ≤ 4.70
